// values below are reported melting point

* CN(C)c1nc2ccccc2c2c(=O)c3cc(Cl)ccc3sc12 [Compound 6] | 194 to 195 °C

// below: melting point requested for another compound
Per the record, O=c1c2cc(Cl)ccc2sc2c(NCCNCCO)nc3ccccc3c12 [Compound N15] has melting point of 141 to 143 °C

====

- System: IGROV1
- Type: cell-based
- Run conditions: IGROV1; five dose
# TGI annotations
Please give a number only; it is taken to be in µM.

# count of solved cases: 3
* CN(C)CCNc1nc2ccccc2c2c(=O)c3cc(Cl)ccc3sc12 | 3.34
* CCNc1nc2ccccc2c2c(=O)c3cc(Cl)ccc3sc12 | 54.40
* NCCNc1nc2ccccc2c2c(=O)c3cc(Cl)ccc3sc12 | 3.45

The compound listed as O=c1c2cc(Cl)ccc2sc2c(NCCCNCCO)nc3ccccc3c12 shows TGI equal to 3.60

====

Below, each entry is listed alongside its reported GI50.
- Tested on: UO-31
- Assay type: cell-based
- Run conditions: Homo sapiens; UO-31; five dose
Respond numerically; units are µM and should not be typed.

Study these solved cases before continuing.
• O=c1c2cc(Cl)ccc2sc2c(NCc3ccccc3)nc3ccccc3c12 = 57.8
• CN(C)CCNc1nc2ccccc2c2c(=O)c3cc(Cl)ccc3sc12 = 1.19
• CCNc1nc2ccccc2c2c(=O)c3cc(Cl)ccc3sc12 = 29.4
• NCCNc1nc2ccccc2c2c(=O)c3cc(Cl)ccc3sc12 = 1.29

Lab book: GI50 of O=c1c2cc(Cl)ccc2sc2c(NCCCNCCO)nc3ccccc3c12 noted as 1.36

====

Listing of recorded LC50 by entry.
- Test system: KM12
- Assay info: cells
- Type: cell-based
- Run conditions: Homo sapiens; KM12; five dose

Examples from the recorded data:
• NCCNc1nc2ccccc2c2c(=O)c3cc(Cl)ccc3sc12 = 5.79 µM
• O=c1c2cc(Cl)ccc2sc2c(NCc3ccccc3)nc3ccccc3c12 = > 100 µM
• CN(C)CCNc1nc2ccccc2c2c(=O)c3cc(Cl)ccc3sc12 = 6.03 µM

Please find the next molecule below.
Just so you know, measured LC50 for CCNc1nc2ccccc2c2c(=O)c3cc(Cl)ccc3sc12 came out at > 100 µM

====

- Test system: NCI/ADR-RES
- Assay type: cell-based
- Run conditions: NCI/ADR-RES; 10^−5 molar
Reported metric: Growth percent (%)
Lab book: enter the figure in %, no units written.

- O=c1c2cc(Cl)ccc2sc2c(NCCCNCCO)nc3ccccc3c12: 26.35

Measured Growth percent of O=c1c2cc(Cl)ccc2sc2c(NCCc3ccccc3)nc3ccccc3c12 : 96.51

====

- System: RXF 393
- Assay type: cell-based
- Run conditions: Renal cancer; 10^−5 molar; 48 hours; SRB
Reported metric: Growth percent RXF 393 (%)
Number only, in %; omit the unit.

- CNc1nc2ccccc2c2c(=O)c3cc(Cl)ccc3sc12 [Compound N1]: 84.52
- CCNc1nc2ccccc2c2c(=O)c3cc(Cl)ccc3sc12 [Compound N2]: 34.56

Reported Growth percent RXF 393 of O=c1c2cc(Cl)ccc2sc2c(N3CCN(Cc4ccccc4)CC3)nc3ccccc3c12 [Compound 11] : 100.71

====

Each entry below carries its recorded Growth percent.
- System: SR
- Assay type: cell-based
- Run conditions: SR; 10^−5 molar
State the value, then name its unit.

* O=c1c2cc(Cl)ccc2sc2c(NCCCNCCO)nc3ccccc3c12 | −51.40%
* CN(C)CCCNc1nc2ccccc2c2c(=O)c3cc(Cl)ccc3sc12 | 48.48%
* O=c1c2cc(Cl)ccc2sc2c(NCCc3ccccc3)nc3ccccc3c12 | 89.88%
* O=c1c2cc(Cl)ccc2sc2c(NCc3ccc4c(c3)OCO4)nc3ccccc3c12 | 79.57%
* O=c1c2cc(Cl)ccc2sc2c(NC3CCCCC3)nc3ccccc3c12 | 85.52%

// next entry
Record COc1ccc(CCNc2nc3ccccc3c3c(=O)c4cc(Cl)ccc4sc23)cc1 . Reported Growth percent: 94.13%

====

Growth percent U251 reference
- Tested on: U251
- Type: cell-based
- Run conditions: CNS cancer; 10^−5 molar; 48 hours; SRB
Give the value in % but do not write % after it.

Solved entries:
• O=c1c2ccc(Cl)cc2sc2c(Cl)nc3ccccc3c12 = 101.71
• CN(C)CCNc1nc2ccccc2c2c(=O)c3cc(Cl)ccc3sc12 = −39.75

We now examine a further compound.
Growth percent U251 reported for this compound CCC(CO)Nc1nc2ccccc2c2c(=O)c3cc(Cl)ccc3sc12 (stereo not drawn) : 74.49

====

- Tested on: SK-MEL-5
- Format: cell-based
- Run conditions: Melanoma; 10^−5 molar; 48 hours; SRB
The entries below are paired with their reported Growth percent SK-MEL-5.
Respond with the bare value in %.

Sure, the documented Growth percent SK-MEL-5 for CCC(CO)Nc1nc2ccccc2c2c(=O)c3cc(Cl)ccc3sc12 (stereo not drawn) is 87.19

Documented Growth percent SK-MEL-5 of CCNc1nc2ccccc2c2c(=O)c3cc(Cl)ccc3sc12 : 73.99

Entry CNc1nc2ccccc2c2c(=O)c3cc(Cl)ccc3sc12 ; Growth percent SK-MEL-5 = 80.13

====

- System: OVCAR-5
- Assay type: cell-based
- Run conditions: Ovarian cancer; 10^−5 molar; 48 hours; SRB
Recorded measurements of Growth percent OVCAR-5, one per entry
Reply numerically in %, unit not repeated.

* CCC(CC)Nc1nc2ccccc2c2c(=O)c3cc(Cl)ccc3sc12 | 99.96
* CCNc1nc2ccccc2c2c(=O)c3cc(Cl)ccc3sc12 | 92.93
* NCCNc1nc2ccccc2c2c(=O)c3cc(Cl)ccc3sc12 | −52.16

Briefly, Growth percent OVCAR-5 measured for CN(C)CCNc1nc2ccccc2c2c(=O)c3cc(Cl)ccc3sc12 : 24.27

Per the records, this compound ( CNc1nc2ccccc2c2c(=O)c3cc(Cl)ccc3sc12 ) has Growth percent OVCAR-5 equal to 86.91

====

Some molecules, each annotated with its measured melting point.

Solved cases (4 shown):
• O=c1c2cc(Cl)ccc2sc2c(N3CCN(c4ccccc4)CC3)nc3ccccc3c12 = 236 to 237 °C
• O=c1c2cc(Cl)ccc2sc2c(N3CCN(CCO)CC3)nc3ccccc3c12 = 211 to 213 °C
• O=c1c2cc(Cl)ccc2sc2c(NCc3ccc4c(c3)OCO4)nc3ccccc3c12 = 205 to 206 °C
• O=c1c2cc(Cl)ccc2sc2c(N3CCN(Cc4ccccc4)CC3)nc3ccccc3c12 = 191 to 193 °C

molecule COc1ccc(CCNc2nc3ccccc3c3c(=O)c4cc(Cl)ccc4sc23)cc1 , melting point observed: 214 to 215 °C

get_value(item= O=c1c2cc(Cl)ccc2sc2c(NC3CCN(Cc4ccccc4)CC3)nc3ccccc3c12 , readout=melting point) returns 194 to 196 °C

Entry O=c1c2cc(Cl)ccc2sc2c(N3CCNCC3)nc3ccccc3c12 ; melting point = 211 to 213 °C

Reported melting point ( CCN(CC)CCCNc1nc2ccccc2c2c(=O)c3cc(Cl)ccc3sc12 ) = 142 to 143 °C

The reported value for CCCNc1nc2ccccc2c2c(=O)c3cc(Cl)ccc3sc12 in terms of melting point is 178 to 179 °C

Reported melting point ( O=c1c2cc(Cl)ccc2sc2c(N3CCC(CCCC4CCNCC4)CC3)nc3ccccc3c12 ) = 164 to 165 °C

melting point recorded for this molecule, CC(C)CNc1nc2ccccc2c2c(=O)c3cc(Cl)ccc3sc12 , is 159 to 160 °C

// recorded melting point for O=c1c2cc(Cl)ccc2sc2c(N3CCC(O)CC3)nc3ccccc3c12 : 224 to 225 °C

// melting point lookup, molecule = CCN1CCN(c2nc3ccccc3c3c(=O)c4cc(Cl)ccc4sc23)CC1 , result: 196 to 198 °C

Note to self: melting point recorded for O=c1c2cc(Cl)ccc2sc2c(N3CCSCC3)nc3ccccc3c12 was 219 to 220 °C

Form: molecule = O=c1c2cc(Cl)ccc2sc2c(NCCc3ccccc3)nc3ccccc3c12 ; melting point = 151 to 152 °C

The molecule identified as O=C(O)c1c(Sc2ccc(Cl)cc2)c(O)nc2ccccc12 registered its melting point at 306 to 308 °C

Input O=c1c2cc(Cl)ccc2sc2c(NC3Cc4ccccc4C3)nc3ccccc3c12 . Output melting point: 251 to 252 °C

Value of measured melting point for the entry O=c1c2cc(Cl)ccc2sc2c(N3CCC(N4CCCCC4)CC3)nc3ccccc3c12 : 187 to 189 °C

Recorded result, CCC(CC)Nc1nc2ccccc2c2c(=O)c3cc(Cl)ccc3sc12 , melting point: 160 to 161 °C

The molecule listed as O=c1c2cc(Cl)ccc2sc2c(N3CCC(Cc4ccccc4)CC3)nc3ccccc3c12 has a reported melting point of 184 to 185 °C
